Values from ChEMBL document CHEMBL4513216

- Tested on: Plasmodium berghei
- experiment_notes: Screen against P. berghei liver stage (PbLuc), transformed with Luciferase, at 10uM
- Type: functional, HepG2
- setup_conditions: tested at 10 uM
In all, about 69,000 compounds went through this assay and about 8,600 (12%) showed an effect of 50% or more. Shown is part of a subset that was picked to be rich in strong results.
measurement_label: INHIBITION
Include the unit right after the number.

Some compounds with known INHIBITION results, for comparison:
# compound, assay_target, INHIBITION
rows = [
    ("CCc1nccn1CC(=O)N1C[C@@H]2CC[C@H]1CN(S(=O)(=O)N(C)C)C2", "Plasmodium berghei", "17%"),
    ("CS(=O)(=O)NCCC1CCCCN1C(=O)NCCc1ccccn1 (stereo unspecified)", "Plasmodium berghei", "-25.6%"),
    ("Cc1ccccc1N1CCN(C(=O)CCc2nncn2C)C(C)C1 (stereo unspecified)", "Plasmodium berghei", "8.38%"),
    ("Cc1cc(C(=O)N2CCN(Cc3ccsc3)CC2)c(C)n1C1CC1", "Plasmodium berghei", "-1.14%"),
]

Value lookup for INHIBITION; key = Cc1cc(CN(C)C(=O)NCC(C)N2CCc3ccccc32)no1 (stereo unspecified) 15.6%

Proceed to `O=C(NCC(=O)N1CCCC1)c1nc(Cc2c(Cl)cccc2Cl)no1` -32.8%
